As shown below, each of these binders has a reported kon value.
- measurement target: Recombinant human his-tagged IGF R extracellular domain protein (human) (UniProt P08069)
- assay details: SPR, Ab captured via anti-huIgG Fc, pH 7.4
// return numeric value only (unit: M⁻¹ s⁻¹, not printed)

Examples with their reported kon follow.
binder: VRDN-02011 (antibody, V domains shown) VH: QVQLQESGPGLVKPSETLSLTCTVSGYSITGGYLWHWIRQPPGKGLEWIGYISYDGTNNYKPSLKDRVTISRDTSKNQFSLKLSSVTAADTAVYYCARYGRVFFDYWGQGTLVTVSS VL: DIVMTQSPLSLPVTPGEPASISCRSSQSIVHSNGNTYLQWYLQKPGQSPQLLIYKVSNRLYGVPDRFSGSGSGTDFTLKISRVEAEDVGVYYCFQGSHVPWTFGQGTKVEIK
kon (M⁻¹ s⁻¹): 105000

binder: VRDN-02041 (antibody, V domains shown) VH: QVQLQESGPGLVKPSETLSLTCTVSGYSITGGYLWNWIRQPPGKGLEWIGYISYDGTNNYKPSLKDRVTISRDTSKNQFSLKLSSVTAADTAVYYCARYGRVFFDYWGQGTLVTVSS VL: DIVMTQSPLSLPVTPGEPASISCRSSQSIVHSNGNTHLQWYLQKPGQSPQLLIYKVSNRLYGVPDRFSGSGSGTDFTLKISRVEAEDVGVYYCFQGSHVPWTFGQGTKVEIK
kon (M⁻¹ s⁻¹): 95500

Then there is this binder:
Briefly, kon measured for VRDN-02057 (antibody, V domains shown) VH: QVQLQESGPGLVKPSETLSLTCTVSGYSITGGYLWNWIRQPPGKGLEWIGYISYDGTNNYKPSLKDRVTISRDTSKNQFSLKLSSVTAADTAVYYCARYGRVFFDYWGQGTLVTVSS VL: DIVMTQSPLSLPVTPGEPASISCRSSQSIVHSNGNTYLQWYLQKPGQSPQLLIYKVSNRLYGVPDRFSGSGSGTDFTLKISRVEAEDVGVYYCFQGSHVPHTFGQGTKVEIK : 95800
